# EXPERIMENT: recombinant barcode read abundance after kanamycin selection (control-corrected) (log10(CPM+1)); higher = more efficient recombination; sequences stand for … in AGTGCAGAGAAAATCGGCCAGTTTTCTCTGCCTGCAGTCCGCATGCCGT…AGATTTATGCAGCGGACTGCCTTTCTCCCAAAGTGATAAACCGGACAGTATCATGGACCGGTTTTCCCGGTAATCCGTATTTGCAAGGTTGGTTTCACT; site = the 11-nt target
MEASURE: recombinant barcode read abundance (log10)
// keep it numeric: no unit symbol after the value

QUERY SEQUENCE: GAAACGGCTTGGGTTCTAACCTGTTGCCT (site GAAAGGGCTAG)
MEASURED NUMBER: 0.0962
//
QUERY SEQUENCE: CAAAGACCTTGGGTTCTAACCTGTTGCGG (site CAAAGACCTCC)
MEASURED NUMBER: 2.06
//
QUERY SEQUENCE: AGAACTCCTTGGGTTCTAACCTGTTGCGA (site CTGGAGACTAA)
MEASURED NUMBER: 0.42

Field request: recombinant barcode read abundance (log10) | item: GCCGATTCTTGGGTTCTAACCTGTTGCCT (site ACCGATTCTAT)
0.0154

Please look up its recombinant barcode read abundance (log10): TTAGTCCCTTGGGTTCTAACCTGTTGCCT (site TTAGTGCCTAG)
0.202

What value of recombinant barcode read abundance (log10) has been recorded for this entry: AGGCGCCCTTGGGTTCTAACCTGTTGCAC (site AGGCGCCCTAT)
0.249

# lookup: recombinant barcode read abundance (log10) of GAACACACTTGGGTTCTAACCTGTTGCCG (site GCACACACTCA)
0.794

# input sequence: CTCTAGTCTTGGGTTCTAACCTGTTGCCT (site CTCTAGTCTAA) ; wanted: its recombinant barcode read abundance (log10)
0.0156

# query: recombinant barcode read abundance (log10) of entry GGTGCTCCTTGGGTTCTAACCTGTTGCAA (site GGTGCTCCTAT)
0.0718

Would you mind telling me what recombinant barcode read abundance (log10) value was observed for TGAACTACTTGGGTTCTAACCTGTTGCCT (site TGAATTACTAG) ?
0.065

---

# EXPERIMENT: recombinant UMI read abundance after kanamycin selection (control-corrected) (log10(CPM+1)); higher = more efficient recombination; extreme values may be limits of the assay; sequences stand for … in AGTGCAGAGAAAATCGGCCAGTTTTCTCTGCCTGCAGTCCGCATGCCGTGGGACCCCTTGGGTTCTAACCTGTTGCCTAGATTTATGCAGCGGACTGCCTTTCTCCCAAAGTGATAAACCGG…AGGTTGGTTTCACT; site = the 11-nt donor
Kindly return 1 if reported recombinant UMI read abundance (log10) is no lower than 0.8; return -1 if it is lower.

Say whether CCCACATCATGGACCGGTTTTCCCGGTAATCCGTATTTGTC (site CCCATATCTGA) shows recombinant UMI read abundance (log10) of 0.8 or more.
-1

Could you verify whether the entry TGTAGACCATGGACCGGTTTTCCCGGTAATCCGTATTTGAC (site TGTAGACCTGT) shows recombinant UMI read abundance (log10) of no less than 0.8?
-1

---

# EXPERIMENT: recombinant UMI read abundance after kanamycin selection (control-corrected) (log10(CPM+1)); higher = more efficient recombination; extreme values may be limits of the assay; sequences stand for … in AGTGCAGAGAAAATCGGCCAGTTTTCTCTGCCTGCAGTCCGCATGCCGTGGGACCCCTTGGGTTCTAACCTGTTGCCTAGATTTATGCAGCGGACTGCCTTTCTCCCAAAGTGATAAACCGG…AGGTTGGTTTCACT; site = the 11-nt donor
Classification field: enter MET for recombinant UMI read abundance (log10) values not below 0.3, NOT MET for values below it.

Observe how each entry below is paired with its result.
QUERY SEQUENCE: GATGCAACATGGACCGGTTTTCCCGGTAATCCGTATTTGAT (site GATGCAACTAT)
ASSIGNED CLASS: MET
//
QUERY SEQUENCE: AACCTTCCATGGACCGGTTTTCCCGGTAATCCGTATTTGAA (site AACCTTCCTTT)
ASSIGNED CLASS: NOT MET
//
QUERY SEQUENCE: AGAACATCATGGACCGGTTTTCCCGGTAATCCGTATTTGCG (site AGAACATCTCG)
ASSIGNED CLASS: MET
//
QUERY SEQUENCE: CCCGCCACATGGACCGGTTTTCCCGGTAATCCGTATTTGCC (site CCCGCCACTGG)
ASSIGNED CLASS: MET
//
QUERY SEQUENCE: TAGCCTACATGGACCGGTTTTCCCGGTAATCCGTATTTGGT (site TAGCCTGCTAC)
ASSIGNED CLASS: NOT MET
//
QUERY SEQUENCE: CCCTAGCCATGGACCGGTTTTCCCGGTAATCCGTATTTGTC (site CCCTAGCCTGA)
ASSIGNED CLASS: NOT MET

Determine whether measured recombinant UMI read abundance (log10) meets or exceeds 0.3 for ATATGCACATGGACCGGTTTTCCCGGTAATCCGTATTTGTA (site TTATGCACTTA)
MET

# check: recombinant UMI read abundance (log10) of GCTACTCCATGGACCGGTTTTCCCGGTAATCCGTATTTGCC (site GCTACTTCTGG) is greater than or equal to 0.3
NOT MET
